Tested on: HCV replicon
Experiment: HCV replicon system in Huh7 cells, replicon RNA by Q-RT-PCR (HCV ΔCt, ΔΔCt); also: test concentration or dose not given here
Assay type: cell-based, hepatitis C virus
Conditions: Table 24; HCV RNA ΔCt minus rRNA ΔCt
Measured metric: Ave. ΔΔCt

Molecule | Measured metric | Observed result
Nc1nc(Cl)c2ncn([C@H]3CS[C@@H](CO)O3)c2n1 [β-D-KB] | Ave. ΔΔCt | 1.10
Nc1ncnc2c1ncn2[C@@H]1O[C@H](CO)[C@@H](F)[C@H]1O [β-D-DD] | Ave. ΔΔCt | 1.61
O=c1nc(NO)c(I)cn1[C@@H]1O[C@H](CO)[C@@H](O)[C@H]1O [β-D-BV] | Ave. ΔΔCt | 1.22
N=c1ccn2c(n1)O[C@H]1[C@H](O)[C@@H](CO)O[C@H]12 [β-D-ME] | Ave. ΔΔCt | 1.64
CC(=O)Nc1ccn([C@@H]2O[C@H](CO)[C@@H](O)[C@@H]2O)c(=O)n1 [β-D-BO] | Ave. ΔΔCt | 1.57
OC[C@H]1O[C@@H](n2cnc3c(Cl)ncnc32)[C@H](O)[C@@H]1O [β-D-DJ] | Ave. ΔΔCt | −0.11
O=c1nc2n(cc1F)[C@@H]1O[C@H](CO2)[C@@H](O)[C@H]1O [β-D-LA] | Ave. ΔΔCt | 0.89

---

Listed next: entries and their corresponding Ave. rRNA ΔCt.
Test system: rRNA (host RNA polymerase I product)
Test: rRNA ΔCt in Huh7 replicon cells (effect on host RNA polymerases); also: test concentration or dose not given here
Conditions: Table 24, average of n

Compound | Ave. rRNA ΔCt
Nc1nc(F)nc2c1ncn2[C@@H]1CS[C@H](CO)O1 [β-L-KC] | 1.35
Cc1ccc(S(=O)(=O)O[C@@H]2[C@@H](O)[C@H](n3cc(I)c(N)nc3=O)O[C@@H]2CO)cc1 [β-D-BF] | 2.69
Cc1ccc(S(=O)(=O)O[C@@H]2[C@@H](O)[C@H](n3ccc(N)nc3=O)O[C@@H]2CO)cc1 [β-D-AL] | 2.72
[2H]c1c(N)nc(=O)n([C@@H]2O[C@H](CO)[C@@H](O)[C@@H]2O)c1[2H] [β-D-AO] | 2.13

---

Test system: HCV replicon
Test: HCV replicon system in Huh7 cells, replicon RNA by Q-RT-PCR (HCV ΔCt, ΔΔCt); also: test concentration or dose not given here
Type: cell-based, hepatitis C virus
Conditions: Table 25; HCV replicon in Huh7 cells; average of N
Listed next: entries and their corresponding Ave. HCV RNA ΔCt.

Compound | Tested system | Ave. HCV RNA ΔCt
O=c1nc(NO)c(Br)cn1[C@@H]1O[C@H](CO)[C@@H](O)[C@H]1O | HCV replicon | 3.46
Nc1ccn([C@@H]2O[C@H](CO)[C@@H](O)[C@@H]2Cl)c(=O)n1 | HCV replicon | 3.86
CC(=O)O[C@H]1[C@@H]2Oc3nc(=N)ccn3[C@@H]2O[C@@H]1CO | HCV replicon | 3.50
N=c1nc(N)ccn1[C@@H]1O[C@H](CO)[C@@H](O)[C@@H]1O | HCV replicon | 2.28
Nc1nc(=O)c([C@@H]2O[C@H](CO)[C@@H](O)[C@H]2O)c[nH]1 | HCV replicon | 4.00
N=c1nc2n(cc1F)[C@@H]1O[C@H](CO)[C@@H](O)[C@@H]1O2 | HCV replicon | 3.79
O=C(Nc1nc(=O)n([C@H]2C=C[C@@H](CO)O2)cc1F)c1ccccc1[N+](=O)[O-] | HCV replicon | 3.33
OC[C@@H]1O[C@H](n2cnc3c(Cl)ncnc32)CS1 | HCV replicon | 4.10
OC[C@@H]1C=C(F)[C@H](n2cnc3c(Cl)ncnc32)O1 | HCV replicon | 3.80
Cc1ccc(S(=O)(=O)O[C@@H]2[C@@H](O)[C@H](n3ccc(N)nc3=O)O[C@@H]2CO)cc1 | HCV replicon | 3.18
CS(=O)(=O)OC1C(CO)OC(n2ccc(N)nc2=O)C1O (stereo not shown) | HCV replicon | 3.51
OC[C@H]1O[C@@H](n2cnc3c(Cl)ncnc32)[C@H](O)[C@@H]1O | HCV replicon | 4.84
Nc1ncnc2c([C@@H]3O[C@H](CO)[C@@H](O)[C@H]3O)cnn12 | HCV replicon | 2.91

---

Test system: rDNA (host DNA)
Assay: rDNA ΔCt in Huh7 replicon cells (effect on cellular DNA polymerases); also: test concentration or dose not given here
Conditions: Table 25, average of N

Compound | Ave. rDNA ΔCt
N=c1nc2n(cc1F)[C@@H]1O[C@H](CO)[C@@H](O)[C@@H]1O2 [β-D-MF] | 2.17
O=c1nc(NO)c(Br)cn1[C@@H]1O[C@H](CO)[C@@H](O)[C@H]1O [β-D-BU] | 1.10
Cc1ccc(S(=O)(=O)O[C@@H]2[C@@H](O)[C@H](n3cc(I)c(N)nc3=O)O[C@@H]2CO)cc1 [β-D-BF] | 2.04
Cc1ccc(S(=O)(=O)O[C@@H]2[C@@H](O)[C@H](n3ccc(N)nc3=O)O[C@@H]2CO)cc1 [β-D-AL] | 2.56
Nc1nc(=O)n([C@@H]2O[C@H](CO)[C@@H](O)[C@H]2O)cc1F [β-D-AQ] | 1.78
Nc1ncnc2c1ncn2[C@@H]1O[C@H](CO)[C@@H](F)[C@H]1O [β-D-DD] | 3.30
Nc1ncnc2c([C@@H]3O[C@H](CO)[C@@H](O)[C@H]3O)cnn12 [β-D-UA] | 0.50
Nc1ccn([C@@H]2O[C@H](CO)[C@H](Br)[C@H]2O)c(=O)n1 [β-D-AI] | −0.96
O=c1nc(NO)ccn1[C@@H]1O[C@H](CO)[C@@H](O)[C@H]1O [β-D-BS] | 0.38
Nc1nc(=O)n([C@@H]2O[C@H](CO)[C@H](Br)[C@H]2O)cc1I [β-D-BE] | 2.06
CC(=O)O[C@H]1[C@@H]2Oc3nc(=N)ccn3[C@@H]2O[C@@H]1CO [β-D-MD] | 1.58
OC[C@H]1O[C@@H](n2cnc3c(Cl)ncnc32)[C@H](O)[C@@H]1O [β-D-DJ] | 2.70
Nc1nc(=O)n([C@@H]2O[C@H](CO)[C@@H](O)[C@@H]2Br)cc1I [β-D-BH] | 1.42
Nc1ccn([C@@H]2O[C@H](CO)C[C@H]2O)c(=O)n1 [β-D-AJ] | 0.43
Nc1nc(=O)n(C2OC(CO)C(Br)C2O)cc1F [β-D-AT] | 2.43
OC[C@@H]1O[C@H](n2cnc3c(Cl)ncnc32)CS1 [β-L-KA] | 0.42
Nc1nc(=O)c([C@@H]2O[C@H](CO)[C@@H](O)[C@H]2O)c[nH]1 [β-D-RB] | 1.27
N=c1ccn2c(n1)O[C@H]1[C@H](O)[C@@H](CO)O[C@H]12 [β-D-ME] | 1.53
OC[C@@H]1C[C@H](F)[C@H](n2cnc3c(Cl)ncnc32)O1 [β-D-DH] | 0.89
OC[C@@H]1C=C(F)[C@H](n2cnc3c(Cl)ncnc32)O1 [β-D-FA] | 1.92
N=c1nc(N)ccn1[C@@H]1O[C@H](CO)[C@@H](O)[C@@H]1O [β-D-BL] | 1.62
O=c1nc2n(cc1F)[C@@H]1O[C@H](CO2)[C@@H](O)[C@H]1O [β-D-LA] | 1.56
Nc1nc(=O)n([C@@H]2O[C@H](CO)[C@@H](O)[C@@H]2O)cc1F [β-D-AP] | 2.26
Nc1nc(SSc2nc(N)nc3c2ncn3[C@@H]2O[C@H](CO)[C@@H](O)[C@H]2O)c2ncn([C@@H]3O[C@H](CO)[C@@H](O)[C@H]3O)c2n1 [β-D-QA] | 2.30
O=C(Nc1nc(=O)n([C@H]2C=C[C@@H](CO)O2)cc1F)c1ccccc1[N+](=O)[O-] [β-D-EB] | 0.96
Nc1ccn([C@@H]2C=C(CO)[C@@H](O)[C@H]2O)c(=O)n1 [β-D-HA] | 2.04
Nc1nc(=O)n(C2CSC(CO)O2)cc1F [β-L-JB] | 1.20
[2H]c1c(N)nc(=O)n([C@@H]2O[C@H](CO)[C@@H](O)[C@@H]2O)c1[2H] [β-D-AO] | 1.84
N=c1nc2c(c[nH]1)[C@@H]1O[C@H](CO)[C@@H](O)[C@@H]1O2 [β-D-TA] | 3.07
O=c1nc(NO)c(I)cn1[C@@H]1O[C@H](CO)[C@@H](O)[C@H]1O [β-D-BV] | 0.31

---

Test system: rRNA (host RNA polymerase I product)
Experiment: rRNA ΔCt in Huh7 replicon cells (effect on host RNA polymerases); also: test concentration or dose not given here
Conditions: Table 24, average of n
Measured metric: Ave. rRNA ΔCt

Compound | Observed result
CS(=O)(=O)OC1C(CO)OC(n2ccc(N)nc2=O)C1O [β-D-AK] | 2.48
Nc1nc(=O)n([C@@H]2C[C@H](CO)[C@@H](O)[C@H]2O)cc1F [β-D-GA] | 2.10
Nc1nc(SSc2nc(N)nc3c2ncn3[C@@H]2O[C@H](CO)[C@@H](O)[C@H]2O)c2ncn([C@@H]3O[C@H](CO)[C@@H](O)[C@H]3O)c2n1 [β-D-QA] | 3.81
N=c1ccn2c(n1)O[C@H]1[C@H](O)[C@@H](CO)O[C@H]12 [β-D-ME] | 1.25
CC1(CO)CO[C@@H](n2cnc3c(N)nc(F)nc32)C1 (stereo partly drawn) [β-D-VA] | 4.17
Nc1nc(=O)n([C@@H]2O[C@H](CO)[C@H](Br)[C@H]2O)cc1I [β-D-BE] | 2.80
